System: Plasmodium berghei
Test details: Luciferase/luciferin-expressing antifolate-resistant parasites were used to infect a culture of HepG2 cells that were pre-incubated with compounds. Infected hepatocytes emit light due to the luciferase reaction. Assay results are presented as the percent inhibition of light emission compared to control. […]
Type: functional
Condition label: sporozoite, read-out: LUCIFERASE INFECTION ASSAY - IC90
Measurement name: IC90

compound=Cc1nc2ccc(N/N=C(/C(=O)Nc3c(Cl)cccc3Cl)C(=O)c3ccccc3)cc2s1 reported="8.28 µM"

// below: IC90 requested for another compound
Value sought: IC90, system Plasmodium berghei, item Cc1ccc(-n2c(C)cc(-c3csc(NC(=O)c4cccc(S(=O)(=O)N5CCc6ccccc65)c4)n3)c2C)cc1 . Result: > 10 µM
